Bridge positions count the residues as written; N and C are the ends. Square brackets hold non-standard residues; d marks the D form. Peptide text beside a SMILES is read from it. dPhe(4-F) = N[C@H](Cc1ccc(F)cc1)C(=O)O; 2Nal = N[C@@H](Cc1ccc2ccccc2c1)C(=O)O; 3Pal = N[C@@H](Cc1cccnc1)C(=O)O; Tle = CC(C)(C)[C@H](N)C(=O)O
Somatostatin receptor type 5 (Homo sapiens, UniProt P35346) Ki data
Sequence (P35346 whole entry): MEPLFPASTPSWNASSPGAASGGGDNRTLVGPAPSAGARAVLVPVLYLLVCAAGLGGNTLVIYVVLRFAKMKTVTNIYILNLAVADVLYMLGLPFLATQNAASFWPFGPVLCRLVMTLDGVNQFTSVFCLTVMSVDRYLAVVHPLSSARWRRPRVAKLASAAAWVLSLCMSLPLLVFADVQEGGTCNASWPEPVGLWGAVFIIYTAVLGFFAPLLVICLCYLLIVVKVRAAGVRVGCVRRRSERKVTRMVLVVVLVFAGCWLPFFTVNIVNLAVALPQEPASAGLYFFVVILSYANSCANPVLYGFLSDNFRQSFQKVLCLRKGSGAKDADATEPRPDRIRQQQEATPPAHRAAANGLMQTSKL
assay-readout: Ki (nM)

Worked examples follow.
{"compound": "CC(C)(C)[C@@H]1NC(=O)[C@H](CCCCN)NC(=O)[C@@H](Cc2c[nH]c3ccccc23)NC(=O)[C@H](Cc2cccnc2)NC(=O)[C@H](NC(=O)[C@H](N)Cc2ccc(F)cc2)CSSC[C@@H](C(=O)N[C@@H](Cc2ccc3ccccc3c2)C(N)=O)NC1=O (H-[dPhe(4-F)][dC][3Pal][dW]K[Tle]C[2Nal]-NH2; disulfide 2-7)", "Ki / nM": 260}
{"compound": "CC[C@H](C)[C@@H]1NC(=O)[C@H](CCCCN)NC(=O)[C@@H](Cc2c[nH]c3ccccc23)NC(=O)[C@H](Cc2cccnc2)NC(=O)[C@H](NC(=O)[C@@H](N)Cc2ccc3ccccc3c2)CSSC[C@@H](C(=O)N[C@@H](Cc2ccc3ccccc3c2)C(N)=O)NC1=O (H-[2Nal][dC][3Pal][dW]KIC[2Nal]-NH2; disulfide 2-7)", "Ki / nM": 847}

[A] CC(C)(C)C[C@@H]1NC(=O)[C@H](CCCCN)NC(=O)[C@@H](Cc2c[nH]c3ccccc23)NC(=O)[C@H](Cc2cccnc2)NC(=O)C(NC(=O)[C@@H](N)Cc2ccc(Cl)cc2)CSSCC(C(=O)N[C@@H](Cc2ccc3ccccc3c2)C(N)=O)NC1=O (stereo in doubt)
[B] CC(C)[C@@H]1NC(=O)[C@H](CCCCN)NC(=O)[C@@H](Cc2c[nH]c3ccccc23)NC(=O)[C@H](Cc2cccnc2)NC(=O)[C@H](NC(=O)[C@@H](N)Cc2ccc(Cl)cc2)CSSC[C@@H](C(=O)N[C@@H](Cc2ccc3ccccc3c2)C(N)=O)NC1=O
Please tell me which of the two, A or B , has the higher reported Ki value. # answer = label of selected item
B
(B: 240 nM, A: 110 nM)

###

Biological target: Somatostatin receptor type 4 (Homo sapiens)
Sequence (P31391 whole entry): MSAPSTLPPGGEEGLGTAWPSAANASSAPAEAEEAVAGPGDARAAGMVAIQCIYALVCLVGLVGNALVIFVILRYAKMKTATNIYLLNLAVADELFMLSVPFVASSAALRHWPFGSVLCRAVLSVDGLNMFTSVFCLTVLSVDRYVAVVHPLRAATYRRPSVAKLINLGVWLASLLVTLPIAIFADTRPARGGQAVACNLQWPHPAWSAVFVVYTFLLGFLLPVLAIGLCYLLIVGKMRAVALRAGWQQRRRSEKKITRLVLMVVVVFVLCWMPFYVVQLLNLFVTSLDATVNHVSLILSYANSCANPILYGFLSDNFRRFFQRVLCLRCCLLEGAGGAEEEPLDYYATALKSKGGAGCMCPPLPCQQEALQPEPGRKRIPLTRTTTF
Bridge positions count the residues as written; N and C are the ends. Square brackets hold non-standard residues; d marks the D form. Peptide text beside a SMILES is read from it. Phe(4-F) = N[C@@H](Cc1ccc(F)cc1)C(=O)O; 2Nal = N[C@@H](Cc1ccc2ccccc2c1)C(=O)O; Bta = N[C@@H](Cc1csc2ccccc12)C(=O)O; 3Pal = N[C@@H](Cc1cccnc1)C(=O)O; Tle = CC(C)(C)[C@H](N)C(=O)O; Nle = CCCC[C@H](N)C(=O)O
assay-readout: Ki

{"molecule": "CC(C)(C)[C@@H]1NC(=O)[C@H](CCCCN)NC(=O)[C@@H](Cc2c[nH]c3ccccc23)NC(=O)[C@H](Cc2cccnc2)NC(=O)[C@H](NC(=O)[C@@H](N)Cc2c[nH]c3ccccc23)CSSC[C@@H](C(=O)N[C@@H](Cc2ccc3ccccc3c2)C(N)=O)NC1=O (H-W[dC][3Pal][dW]K[Tle]C[2Nal]-NH2; disulfide 2-7)", "test-target": "Somatostatin receptor type 4 (Homo sapiens)", "Ki": "> 1 µM"}
{"molecule": "CC(C)[C@H]1NC(=O)[C@H](CCCCN)NC(=O)[C@@H](Cc2c[nH]c3ccccc23)NC(=O)[C@H](Cc2c[nH]cn2)NC(=O)C(NC(=O)[C@@H](N)Cc2cccc(F)c2)CSSCC(C(=O)N[C@@H](Cc2cccc(F)c2)C(N)=O)NC1=O (stereo in doubt)", "test-target": "Somatostatin receptor type 4 (Homo sapiens)", "Ki": "> 1 µM"}
{"molecule": "CC(C)[C@@H]1NC(=O)[C@H](CCCCN)NC(=O)[C@@H](Cc2c[nH]c3ccccc23)NC(=O)[C@H](Cc2csc3ccccc23)NC(=O)[C@H](NC(=O)[C@@H](N)Cc2ccc3ccccc3c2)CSSC[C@@H](C(=O)N[C@@H](Cc2ccc3ccccc3c2)C(N)=O)NC1=O (H-[2Nal][dC][Bta][dW]KVC[2Nal]-NH2; disulfide 2-7)", "test-target": "Somatostatin receptor type 4 (Homo sapiens)", "Ki": "> 1 µM"}
{"molecule": "CC(C)(C)[C@@H]1NC(=O)[C@H](CCCCN)NC(=O)[C@@H](Cc2c[nH]c3ccccc23)NC(=O)[C@H](Cc2cccnc2)NC(=O)[C@H](NC(=O)[C@@H](N)Cc2ccc(F)cc2)CSSC[C@@H](C(=O)N[C@@H](Cc2ccc3ccccc3c2)C(N)=O)NC1=O (H-[Phe(4-F)][dC][3Pal][dW]K[Tle]C[2Nal]-NH2; disulfide 2-7)", "test-target": "Somatostatin receptor type 4 (Homo sapiens)", "Ki": "> 1 µM"}
{"molecule": "CC(C)(C)[C@@H]1NC(=O)[C@H](CCCCN)NC(=O)[C@@H](Cc2c[nH]c3ccccc23)NC(=O)[C@H](Cc2cccnc2)NC(=O)[C@H](NC(=O)[C@@H](N)Cc2ccc3ccccc3c2)CSSC[C@@H](C(=O)N[C@@H](Cc2ccc3ccccc3c2)C(N)=O)NC1=O (H-[2Nal][dC][3Pal][dW]K[Tle]C[2Nal]-NH2; disulfide 2-7)", "test-target": "Somatostatin receptor type 4 (Homo sapiens)", "Ki": "0.145 µM"}

Fetch value of Ki on Somatostatin receptor type 4 (Homo sapiens) for CCCC[C@@H]1NC(=O)[C@H](CCCCN)NC(=O)[C@@H](Cc2c[nH]c3ccccc23)NC(=O)[C@H](Cc2cccnc2)NC(=O)[C@H](NC(=O)[C@@H](N)Cc2ccc3ccccc3c2)CSSC[C@@H](C(=O)N[C@@H](Cc2ccc3ccccc3c2)C(N)=O)NC1=O (H-[2Nal][dC][3Pal][dW]K[Nle]C[2Nal]-NH2; disulfide 2-7) .
0.672 µM

Fetch value of Ki on Somatostatin receptor type 4 (Homo sapiens) for `CC(C)[C@@H]1NC(=O)[C@H](CCCCN)NC(=O)[C@@H](Cc2c[nH]c3ccccc23)NC(=O)[C@H](Cc2cccnc2)NC(=O)[C@H](NC(=O)[C@@H](N)Cc2ccc3ccccc3c2)CSSC[C@@H](C(=O)N[C@@H](Cc2ccc3ccccc3c2)C(N)=O)NC1=O` .
> 1 µM

Fetch value of Ki on Somatostatin receptor type 4 (Homo sapiens) for `C[C@@H](O)[C@@H]1NC(=O)[C@H](CCCCN)NC(=O)[C@@H](Cc2c[nH]c3ccccc23)NC(=O)[C@H](Cc2ccc(O)cc2)NC(=O)[C@H](NC(=O)[C@@H](N)Cc2ccc(Cl)cc2)CSSC[C@@H](C(=O)N[C@@H](Cc2ccc3ccccc3c2)C(N)=O)NC1=O` .
> 1 µM

Fetch value of Ki on Somatostatin receptor type 4 (Homo sapiens) for `C[C@@H]1NC(=O)[C@H](CCCCN)NC(=O)[C@@H](Cc2c[nH]c3ccccc23)NC(=O)[C@H](Cc2cccnc2)NC(=O)[C@H](NC(=O)[C@@H](N)Cc2ccc3ccccc3c2)CSSC[C@@H](C(=O)N[C@@H](Cc2ccc3ccccc3c2)C(N)=O)NC1=O` .
> 1 µM

Source: ChEMBL document CHEMBL1132220
